// reported EC50 per item
# target-or-system: Protein smoothened (Mus musculus, UniProt P56726)
# Sequence (P56726 whole entry): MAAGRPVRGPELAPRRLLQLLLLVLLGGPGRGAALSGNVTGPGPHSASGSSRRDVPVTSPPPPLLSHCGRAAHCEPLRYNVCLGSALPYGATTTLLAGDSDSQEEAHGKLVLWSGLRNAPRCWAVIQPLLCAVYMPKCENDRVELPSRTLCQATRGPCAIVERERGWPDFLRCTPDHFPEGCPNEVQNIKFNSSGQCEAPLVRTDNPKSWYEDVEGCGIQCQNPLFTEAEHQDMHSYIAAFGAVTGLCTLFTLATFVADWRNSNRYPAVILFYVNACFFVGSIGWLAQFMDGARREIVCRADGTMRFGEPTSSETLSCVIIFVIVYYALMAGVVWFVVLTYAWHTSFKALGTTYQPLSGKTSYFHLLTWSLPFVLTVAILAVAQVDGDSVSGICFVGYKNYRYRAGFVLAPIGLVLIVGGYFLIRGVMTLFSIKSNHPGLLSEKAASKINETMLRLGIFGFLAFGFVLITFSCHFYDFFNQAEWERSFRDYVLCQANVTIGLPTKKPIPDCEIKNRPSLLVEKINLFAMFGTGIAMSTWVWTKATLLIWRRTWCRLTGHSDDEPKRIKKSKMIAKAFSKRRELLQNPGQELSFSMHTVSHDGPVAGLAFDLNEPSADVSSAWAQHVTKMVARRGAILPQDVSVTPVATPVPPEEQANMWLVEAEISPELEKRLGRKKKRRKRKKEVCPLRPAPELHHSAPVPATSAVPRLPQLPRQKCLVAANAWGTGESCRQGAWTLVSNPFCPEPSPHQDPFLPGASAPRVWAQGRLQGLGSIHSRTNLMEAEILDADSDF
# experimental-protocol: Agonist activity at SMO in mouse NIH3T3 cells incubated for 2 hrs by Bright-Glo luciferase assay
Express it in nM; write the number only.

Please review the entries below; each comes with its answer.
compound | unit-label | EC50
CN[C@H]1CC[C@H](N(Cc2cccc(-c3ccncc3)c2)C(=O)c2sc3ccccc3c2Cl)CC1 | nM | 16.9
CN[C@H]1CC[C@H](N(Cc2cccc(-c3ccnc(OCCOCCOCCOCCOCCOCCn4cc(COCCOCCOCCOCCOCCOCCOCCOCCOCCCCCC[C@@H](C)C5CC[C@H]6[C@@H]7CC=C8C[C@@H](O)CC[C@]8(C)[C@H]7CC[C@]56C)nn4)c3)c2)C(=O)c2sc3ccccc3c2Cl)CC1 (stereo not given in full) | nM | 200
CN[C@H]1CC[C@H](N(Cc2cccc(-c3ccnc(OC)c3)c2)C(=O)c2sc3ccccc3c2Cl)CC1 | nM | 819
CN[C@H]1CC[C@H](N(Cc2cccc(-c3ccnc(OCCOCCOCCOCCn4cc(COCCO)nn4)c3)c2)C(=O)c2sc3ccccc3c2Cl)CC1 | nM | 966

We next turn to a different compound, shown below.
// returns reported EC50 for input CN[C@H]1CC[C@H](N(Cc2cccc(-c3ccnc(OCCOCCOCCOCCn4cc(COCCOCCOCCOCCCCCC[C@@H](C)C5CC[C@H]6[C@@H]7CC=C8C[C@@H](O)CC[C@]8(C)[C@H]7CC[C@]56C)nn4)c3)c2)C(=O)c2sc3ccccc3c2Cl)CC1 (stereo not given in full)
200
